FYI, the data here is from ChEMBL document CHEMBL1201862.

Test system: OVCAR-5
Assay: NCI tumour cell line growth inhibition, 48 h
Calls of active or inactive are those of the source. Cut-off read from the data, not from the text of the source: active = GI50 up to about 1.1 µM and inactive = higher.
Answer each item with its documented GI50.

molecule="CCCC(C)NC(=O)c1ccc(N(C)Cc2cnc3nc(N)nc(N)c3n2)cc1 (centres undefined)" study_target=OVCAR-5 test_result="29.3 µM (inactive)"
molecule=O=[N+]([O-])c1ccc(C2c3c(O)nc(S)nc3Oc3nc(S)nc(O)c32)cc1 study_target=OVCAR-5 test_result="> 100 µM (inactive)"
molecule="N#CC1CNC(N)NC1N (centres undefined)" study_target=OVCAR-5 test_result="> 100 µM (inactive)"

From here, focus on the item given below.
-- ask Please look up its GI50: CCC(=O)C1=C(OC(C)=O)C2Cc3c(n(C)c4ccccc34)C(C1)N2C (centres undefined)
-- reply > 100 µM (inactive)
